- study.system: PI3K delta (Homo sapiens)
- Construct: for the full-length p110-d subunit are generated and fused by overlapping PCR; His tag (C); made in house; host or cells: baculovirus BV1060; Tn5 (Trichoplusia ni) or TiniPro insect cells
- test.protocol: PI3K delta kinase assay (Kinase-Glo luminescence)
- Type: biochemical
- details: read-out: EPK_PI3Kdelta/IC50
pIC50: −log10 of the molar value.
quantity.measured: pIC50

Sample answers from the record:
Known value: PI3K delta (Homo sapiens) pIC50 of the compound CCNc1ncc(-c2ccc3ncc4c(c3c2)n(-c2ccc(N3CC[C@@H](O)C3)nc2C)c(=O)n4C)cn1 equals 7.74

Known value: PI3K delta (Homo sapiens) pIC50 of the compound CCNc1cc(-c2ccc3ncc4c(c3c2)n(-c2ccc(N(C)CCO)nc2C)c(=O)n4C)cnc1CO equals 6.54

Known value: PI3K delta (Homo sapiens) pIC50 of the compound COc1cc(-c2ccc3ncc4c(c3c2)n(-c2ccc(N3CC[C@H](O)C3)nc2C)c(=O)n4C)cnc1CO equals 7.46

I: CCOc1ccc(-c2ccc3ncc4c(c3c2)n(-c2ccc(N(C)C)nc2C)c(=O)n4C)cn1
II: CCNc1cc(-c2ccc3ncc4c(c3c2)n(-c2cccnc2C)c(=O)n4C)cnc1CO
III: Cc1nc(C(F)(F)F)ccc1-n1c(=O)n(C)c2cnc3ccc(-c4cncc(C(C)(C)O)c4)cc3c21
Could you please order the items by pIC50, going from the lowest number to the highest? Your task in answering is to list the labels in the requested order.
I, II, III
(I: 6.40, II: 7.60, III: 8.22)

----------
- study.system: PI3K delta (Homo sapiens, UniProt O00329)
- Construct: for the full-length p110-d subunit are generated and fused by overlapping PCR; His tag (C); made in house; host or cells: baculovirus BV1060; Tn5 (Trichoplusia ni) or TiniPro insect cells
- Sequence (O00329 with tags, fused parts or gaps limits assumed): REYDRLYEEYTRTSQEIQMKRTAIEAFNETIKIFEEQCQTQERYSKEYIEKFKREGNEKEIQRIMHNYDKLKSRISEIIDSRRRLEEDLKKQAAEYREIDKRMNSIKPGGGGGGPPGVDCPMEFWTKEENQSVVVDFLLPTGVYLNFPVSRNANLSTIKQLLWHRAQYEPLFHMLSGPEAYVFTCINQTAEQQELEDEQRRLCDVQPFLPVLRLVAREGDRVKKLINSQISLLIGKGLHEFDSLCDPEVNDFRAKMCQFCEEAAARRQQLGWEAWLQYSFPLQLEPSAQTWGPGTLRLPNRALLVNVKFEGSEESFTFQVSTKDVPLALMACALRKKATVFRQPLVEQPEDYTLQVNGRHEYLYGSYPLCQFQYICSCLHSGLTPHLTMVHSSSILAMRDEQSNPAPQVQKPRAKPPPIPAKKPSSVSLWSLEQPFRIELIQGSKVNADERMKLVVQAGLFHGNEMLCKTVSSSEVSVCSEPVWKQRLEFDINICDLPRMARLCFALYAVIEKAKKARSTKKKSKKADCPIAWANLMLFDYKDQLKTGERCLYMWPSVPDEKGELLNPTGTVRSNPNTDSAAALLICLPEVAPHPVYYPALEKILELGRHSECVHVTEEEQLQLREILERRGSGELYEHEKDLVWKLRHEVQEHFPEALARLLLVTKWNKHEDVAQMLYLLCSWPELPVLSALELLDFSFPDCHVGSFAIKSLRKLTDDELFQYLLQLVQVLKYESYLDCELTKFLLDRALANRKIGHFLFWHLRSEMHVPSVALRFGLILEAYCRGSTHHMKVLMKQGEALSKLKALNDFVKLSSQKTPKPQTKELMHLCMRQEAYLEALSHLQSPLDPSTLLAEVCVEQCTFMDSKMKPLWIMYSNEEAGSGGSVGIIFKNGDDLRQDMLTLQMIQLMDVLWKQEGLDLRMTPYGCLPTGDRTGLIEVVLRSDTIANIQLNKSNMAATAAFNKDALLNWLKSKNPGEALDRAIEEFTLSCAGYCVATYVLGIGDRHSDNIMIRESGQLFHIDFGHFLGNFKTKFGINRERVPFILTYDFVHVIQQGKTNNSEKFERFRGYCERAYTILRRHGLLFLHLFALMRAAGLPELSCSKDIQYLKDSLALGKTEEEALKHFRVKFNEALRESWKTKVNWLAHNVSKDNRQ
- test.protocol: PI3K delta kinase assay (Kinase-Glo luminescence)
- Format: biochemical
- details: read-out: EPK_PI3Kdelta/IC50
quantity.measured: IC50 (nM)

Sample answers from the record:
Memo: Cc1ccc(-n2c(=O)n(C)c3cnc4ccc(-c5cnc(N)c(C(F)(F)F)c5)cc4c32)c(C)n1 [Example 14.5] , reported IC50: 7

Memo: Cc1nc(N2CCC(O)C2)ccc1-n1c(=O)n(C)c2cnc3ccc(-c4cncc(OC(C)C)c4)cc3c21 (stereo not shown) [Example 27.1] , reported IC50: 9

Memo: CCNc1ncc(-c2ccc3ncc4c(c3c2)n(-c2ccc(N3CC[C@@H](O)C3)nc2C)c(=O)n4C)cc1C(F)(F)F [Example 34.2] , reported IC50: 12

Memo: COc1ncc(-c2ccc3ncc4c(c3c2)n(-c2ccc(N3CC(O)C3)nc2C)c(=O)n4C)c(OC)n1 [Example 29.6] , reported IC50: 10

a: CNc1cc(-c2ccc3ncc4c(c3c2)n(-c2ccc(C(F)(F)F)nc2C)c(=O)n4C)cnc1CO [Example 33.2]
b: CCOc1ccc(-c2ccc3ncc4c(c3c2)n(-c2ccc(NC(=O)COC)nc2C)c(=O)n4C)cn1 [Example 20.2]
c: Cc1ccc(-n2c(=O)n(C)c3cnc4ccc(-c5cnc(N(C)C)nc5)cc4c32)c(C)n1 [Example 14.3]
Falling order of IC50, please. Your task in answering is to list the labels in the requested order.
b, c, a
(b: 247 nM, c: 49 nM, a: 10 nM)

----------
- test.protocol: Parallel Artificial Membrane Permeability Assay (PAMPA) at pH 6.8
- Type: physicochemical
quantity.measured: HT-Perm logPe pH6.8

Memo: Cc1nc(C(C)(C)O)ccc1-n1c(=O)n(C)c2cnc3ccc(-c4cncc(C5(C#N)CCC5)c4)cc3c21 , reported HT-Perm logPe pH6.8: −4.3

Memo: CCOc1cc(-c2ccc3ncc4c(c3c2)n(-c2cccnc2C)c(=O)n4C)cnc1C , reported HT-Perm logPe pH6.8: −3.7

Memo: CNc1cc(-c2ccc3ncc4c(c3c2)n(-c2ccc(N(C)C)nc2C)c(=O)n4C)cnc1C , reported HT-Perm logPe pH6.8: −4.1

Memo: CCOc1ccc(-c2ccc3ncc4c(c3c2)n(-c2ccc(C(C)(C)O)nc2C)c(=O)n4C)cn1 , reported HT-Perm logPe pH6.8: −3.7

Memo: CCOc1cc(-c2ccc3ncc4c(c3c2)n(-c2ccc(N3CCCC3)nc2C)c(=O)n4C)cnc1COC , reported HT-Perm logPe pH6.8: −3.9

Memo: COCCOc1cc(-c2ccc3ncc4c(c3c2)n(-c2ccc(OC)nc2OC)c(=O)n4C)cnc1C , reported HT-Perm logPe pH6.8: −3.9

Memo: Cc1nc(N2CCC(O)C2)ccc1-n1c(=O)n(C)c2cnc3ccc(-c4cncc(OC(C)C)c4)cc3c21 (stereo not drawn) , reported HT-Perm logPe pH6.8: −4.9

Memo: CNc1ncc(-c2ccc3ncc4c(c3c2)n(-c2ccc(OCCOC)nc2C)c(=O)n4C)cn1 , reported HT-Perm logPe pH6.8: −4.3

Memo: CCOc1ccc(-c2ccc3ncc4c(c3c2)n(-c2ccc(C)nc2C)c(=O)n4C)cn1 , reported HT-Perm logPe pH6.8: −3.8

Memo: CNc1ncc(-c2ccc3ncc4c(c3c2)n(-c2cnc(F)cc2C)c(=O)n4C)cn1 , reported HT-Perm logPe pH6.8: −4.4

Memo: CNc1ncc(-c2ccc3ncc4c(c3c2)n(-c2ccc(N(C)CCO)nc2C)c(=O)n4C)cn1 , reported HT-Perm logPe pH6.8: −4.9

Memo: CNc1ncc(-c2ccc3ncc4c(c3c2)n(-c2ccc(N3CC(O)C3)nc2C)c(=O)n4C)cc1C(F)(F)F , reported HT-Perm logPe pH6.8: −5

Memo: CNc1ncc(-c2ccc3ncc4c(c3c2)n(-c2ccc(N3CC(O)C3)nc2C)c(=O)n4C)cc1F , reported HT-Perm logPe pH6.8: −5.1

Memo: COCc1ncc(-c2ccc3ncc4c(c3c2)n(-c2ccc(OC)nc2OC)c(=O)n4C)cc1OC , reported HT-Perm logPe pH6.8: −4

Memo: CNc1ncc(-c2ccc3ncc4c(c3c2)n(-c2ccc(N3CC(F)(F)C3)nc2C)c(=O)n4C)cn1 , reported HT-Perm logPe pH6.8: −3.9

----------
- Tested on: PKB Ser473 phosphorylation in Rat1-myr-HA-p110 beta cells
- test.protocol: Reverse protein array, PKB Ser473 phosphorylation in Rat1-myr-HA-p110 beta cells
- Assay type: cell-based
- details: Rattus norvegicus, 0.5 h, 30 minutes compound incubation, read-out: p-PKB/IC50_beta
pIC50: −log10 of the molar value.
quantity.measured: pIC50

Sample answers from the record:
Memo: Cc1ncccc1-n1c(=O)n(C)c2cnc3ccc(-c4cncc(NC(C)C)c4)cc3c21 , reported pIC50: 7.79

Memo: COc1cc(-c2ccc3ncc4c(c3c2)n(-c2ccc(N)nc2C)c(=O)n4C)cnc1CO , reported pIC50: 6.62

Memo: Cc1ccncc1-n1c(=O)n(C)c2cnc3ccc(-c4ccc(N(C)C)nc4)cc3c21 , reported pIC50: 6.52

a: COc1cc(-c2ccc3ncc4c(c3c2)n(-c2cccnc2C)c(=O)n4C)cnc1C(OC)OC
b: Cc1nc(N(C)C)ccc1-n1c(=O)n(C)c2cnc3ccc(-c4cncc(N)c4)cc3c21
c: Cc1ncccc1-n1c(=O)n(C)c2cnc3ccc(-c4cnc(N(C)C)nc4)cc3c21
d: CCOc1ccc(-c2ccc3ncc4c(c3c2)n(-c2ccc(N(C)CCOC)nc2C)c(=O)n4C)cn1
Could you please order the items by pIC50, going from the lowest number to the highest? Your task in answering is to list the labels in the requested order.
a, c, d, b
(a: 6.61, c: 7.00, d: 7.55, b: 7.95)

----------
- System: S6 Ribosomal Protein phosphorylation Ser235/236 in TSC1 null mouse embryo fibroblast (MEF) cells
- test.protocol: Reverse protein array, S6 Ribosomal Protein phosphorylation in TSC1 null MEF cells
- Assay type: cell-based
- details: 1 h, TSC1-/- MEFs, 60 minutes, read-out: p-S6 IC50
quantity.measured: pIC50
Recall that pIC50 is obtained by taking minus log10 of the concentration measured in molar.

Sample answers from the record:
Memo: CNc1ccc(-c2ccc3ncc4c(c3c2)n(-c2cnc(F)cc2C)c(=O)n4C)cn1 , reported pIC50: 8.30

Memo: Cc1ncccc1-n1c(=O)n(C)c2cnc3ccc(-c4ccc5nccn5c4)cc3c21 , reported pIC50: 7.43

Memo: COc1cc(-c2ccc3ncc4c(c3c2)n(-c2ccc(N3CCC(OC)C3)nc2C)c(=O)n4C)cnc1CO (stereo not shown) , reported pIC50: 8.10

Then there is this molecule:
Memo: Cc1ncccc1-n1c(=O)n(C)c2cnc3ccc(-c4cncc(NC(C)C)c4)cc3c21 , reported pIC50: 8.40

----------
- test.protocol: Parallel Artificial Membrane Permeability Assay (PAMPA) at pH 6.8
- Assay type: physicochemical
quantity.measured: HT-Perm logPe pH6.8

A: CNc1ncc(-c2ccc3ncc4c(c3c2)n(-c2ccc(N3CC[C@H](O)C3)nc2C)c(=O)n4C)cn1
B: COc1cc(-c2ccc3ncc4c(c3c2)n(-c2ccc(N3CC(O)C3)nc2C)c(=O)n4C)cnc1CO
Which value of HT-Perm logPe pH6.8 is smaller, the one for A or the one for B ? Answer = label.
B
(B: −7.8, A: −5)

a: Cc1ccc(-n2c(=O)n(C)c3cnc4ccc(-c5cnc(N)c(C(F)(F)F)c5)cc4c32)c(C)n1
b: COc1nc(N2CCNCC2)ccc1-n1c(=O)n(C)c2cnc3ccc(-c4cnc(N(C)C)nc4)cc3c21
HT-Perm logPe pH6.8 comparison. Which is larger, a or b ? Answer = label.
a
(a: −3.8, b: −6.1)

Where do these numbers come from? They come from patent US20100311714A1.
